The entries below come with measured cytotoxicity at 10 µM values attached.
- protocolDescription: Toxicity liver stage against HepG2, at 10uM
- Type: cell-based
- Set-up: test concentration 10 uM, cell line HepG2-A16-CD81EGFP
- experimentalConditions: human, HepG2-A16-CD81EGFP cells; read-out: INHIBITION
Expressed in %, but write only the number.

Before answering, review these 5 worked examples.
compound=COCCO[C@@H]1CCN(C(=O)c2ccc(C)o2)[C@@H]1Cc1cnn(C)c1 measurementtype="cytotoxicity at 10 µM" unitabbrev=% numericvalue=-12.8
compound="COc1cc(CC2CC(c3ccc4c(c3)OCO4)=NO2)cc2c1OCO2 (stereo unspecified)" measurementtype="cytotoxicity at 10 µM" unitabbrev=% numericvalue=0.69
compound="Cc1cc2nc(C(C)C)cc(N(C)CC3CCCN3C)n2n1 (stereo unspecified)" measurementtype="cytotoxicity at 10 µM" unitabbrev=% numericvalue=8.49
compound=COCCN1CCN(Cc2ccc(OCc3nccn3C)cc2)CC1 measurementtype="cytotoxicity at 10 µM" unitabbrev=% numericvalue=-7.11
compound=OCc1ccc(-c2nccn2CCc2nc3c(s2)CCCC3)o1 measurementtype="cytotoxicity at 10 µM" unitabbrev=% numericvalue=4.71

Note: attention shifts to another entry.
Exercise: Field request: cytotoxicity at 10 µM | item: Cc1ccc(CN2CCC3(CC2)NC(=O)CC3c2ccncc2)cc1C (stereo unspecified)
Solution: 3.75

###

- protocolDescription: Toxicity liver stage against HepG2, at 10uM
- Format: cell-based
- Design: test concentration 10 uM, cell line HepG2-A16-CD81EGFP
- experimentalConditions: human, HepG2-A16-CD81EGFP cells; read-out: INHIBITION
measurementType: cytotoxicity at 10 µM (%)
Kindly provide the numeric value in % only, without the unit symbol.

compound=Cc1cccc(CC(=O)Nc2cccnc2N2CCC(CO)CC2)c1 unitabbrev=% numericvalue=-2.23

Exercise: What value of measured cytotoxicity at 10 µM is listed for CCNC(=O)N1CC[C@H]2CC(=O)N(CC(N)=O)CC[C@H]2C1 ?
Solution: 10

Exercise: Note, next up: Cn1cc(Br)cc(NC(=O)Cc2cccs2)c1=O
Solution: 2.14

Exercise: And what about the compound COCC(=O)NC(C)c1cccc(Br)c1 (stereo unspecified) ?
Solution: -8.13

Exercise: Another compound: CN(Cc1cc(Br)cn1C)C(=O)c1ccsc1
Solution: -10

Exercise: One more compound: CC(C)(C)NC(=O)c1ccn(COc2ccccc2Cl)n1
Solution: 10.7

###

- protocolDescription: Toxicity liver stage against HepG2, at 10uM
- Type: cell-based
- Design: test concentration 10 uM, cell line HepG2-A16-CD81EGFP
- experimentalConditions: human, HepG2-A16-CD81EGFP cells; read-out: INHIBITION
measurementType: cytotoxicity at 10 µM
Answer format: number, then unit.

Example entries and their recorded answers appear below.
molecule="CC(C)N(Cc1nc(-c2cccs2)no1)CC1CCC(=O)N1 (stereo unspecified)" result=-0.475%
molecule="CC(C)[C@H](NC(=O)NC1CCS(=O)(=O)C1)C(=O)Nc1cccnc1 (stereo partly specified)" result=6.85%
molecule="CC(CNS(N)(=O)=O)Oc1cccc(Cl)c1 (stereo unspecified)" result=2.24%
molecule=Cc1ccc(S(=O)(=O)N2CC[C@@H]3C[C@H](NC(=O)c4n[nH]cc4Cl)[C@@H]32)cc1 result=4.31%
molecule=CCS(=O)(=O)NCCCNCc1c(C)nn(C)c1N(C)C result=-9.66%
molecule=Nc1nc2c(c(NC(=O)Nc3ccccc3)n1)CCCC2 result=-9.74%
molecule=CC(C)c1nnc2n1CCN(CC(=O)Nc1sccc1C#N)C2 result=-2.6%
molecule=CN(C(=O)c1cccc(NCC(=O)O)c1)C(C1CC1)C1CC1 result=5.01%
molecule=c1cc(-c2noc([C@@H]3CCCN3CC3CC3)n2)cc(N2CCCC2)n1 result=4.12%
molecule=N[C@H]1CN(C(=O)CCc2ccccn2)C[C@@H]1c1ccccc1 result=-0.23%

# next molecule below
Exercise: Recorded cytotoxicity at 10 µM of CCCSCC(=O)N1C[C@H]2CC[C@@H](C1)N(Cc1ccccn1)C2=O , please.
Solution: 3.32%

Values from ChEMBL document CHEMBL4513216
